- TEST: Oral bioavailability in Sprague-Dawley rat at 4.0 mg/kg, po
- Format: ADME, organism-based
- ASSAY_SETUP: in vivo

| QUERY_SMILES | bioavailability, % |
| --- | --- |
| N#Cc1ncc2cc(COc3ccc(C(N)=O)cc3)n(CCC3CCCCC3)c2n1 | 21 |

---

- TARGET: Cathepsin K (Homo sapiens)
- Sequence (P43235 whole entry): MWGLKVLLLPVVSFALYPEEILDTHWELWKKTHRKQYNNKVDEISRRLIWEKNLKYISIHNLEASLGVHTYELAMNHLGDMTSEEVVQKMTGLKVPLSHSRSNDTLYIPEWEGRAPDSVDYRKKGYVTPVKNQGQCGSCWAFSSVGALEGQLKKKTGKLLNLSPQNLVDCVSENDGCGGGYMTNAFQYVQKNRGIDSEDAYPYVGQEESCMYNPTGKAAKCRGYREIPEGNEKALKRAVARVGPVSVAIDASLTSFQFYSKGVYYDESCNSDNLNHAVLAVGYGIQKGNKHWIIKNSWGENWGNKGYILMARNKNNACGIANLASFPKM
- TEST: Inhibition of human recombinant cathepsin K by fluorescence assay
Property: IC50; scope: individual compounds

| QUERY_SMILES | IC50 |
| --- | --- |
| N#Cc1ncc2cc(COc3ccc(C(N)=O)cc3)n(CCC3CCCCC3)c2n1 | 280 nM |
| N#Cc1ncc2cc(Cc3ccc(Cl)cc3)n(CCC3CCCC3)c2n1 | 17 nM |
| N#Cc1ncc2cc(Cc3ccc(Cl)cc3)n(CCC3CCCCCCC3)c2n1 | > 1000 nM |
| CN(Cc1cc2cnc(C#N)nc2n1CCC1CCCCC1)c1ccccc1 | > 1000 nM |
| CC(=O)Nc1ccc(OCc2cc3cnc(C#N)nc3n2CCC2CCCCC2)cc1 | > 1000 nM |
| N#Cc1ncc2cc(Cc3ccc(Cl)cc3)n(CCC3CCCCCC3)c2n1 | > 1000 nM |
| N#Cc1ncc2cc(COc3ccccc3)n(CCC3CCCCC3)c2n1 | > 1000 nM |
| CC(=O)N1CCC(c2ccc(OCc3cc4cnc(C#N)nc4n3CCC3CCCCC3)cc2)CC1 | > 1000 nM |
| N#Cc1ncc2cc(Cc3ccc(Cl)cc3)n(CCc3cccc(Cl)c3)c2n1 | > 1000 nM |
| N#Cc1ncc2cc(COc3cccc(CCC(=O)O)c3)n(CCC3CCCCC3)c2n1 | > 5000 nM |
| N#Cc1ncc2cc(COc3cccc(C(N)=O)c3)n(CCC3CCCCC3)c2n1 | 390 nM |
| N#Cc1ncc2cc(Cc3ccc(Cl)cc3)n(CCN3CCCCC3)c2n1 | > 1000 nM |
| COc1ccc(Cc2cc3cnc(C#N)nc3n2CCC2CCCCC2)cc1 | 280 nM |
| N#Cc1ncc2cc(COc3ccc(C(=O)O)cc3)n(CCC3CCCCC3)c2n1 | > 2000 nM |
| CC(=O)N1CCN(c2ccc(OCc3cc4cnc(C#N)nc4n3CCC3CCCCC3)cc2)CC1 | > 1500 nM |
| N#Cc1ncc2cc(Cc3ccc(Cl)cc3)n(CCc3ccc(Cl)cc3)c2n1 | > 1000 nM |
| CC(C)(C)CCn1c(Cc2ccc(Cl)cc2)cc2cnc(C#N)nc21 | < 1 nM |
| N#Cc1ncc2cc(Cc3ccc(Cl)cc3)n(CCC3CCCCC3)c2n1 | 220 nM |
| N#Cc1ncc2cc(Cc3ccc(Cl)cc3)n(CC3CCCCC3)c2n1 | 6 nM |
| CC(C)(C)Cn1c(Cc2ccc(Cl)cc2)cc2cnc(C#N)nc21 | < 1 nM |
| CCC(=O)Nc1ccc(OCc2cc3cnc(C#N)nc3n2CCC2CCCCC2)cc1 | > 1500 nM |
| CC(=O)N1CC=C(c2ccc(OCc3cc4cnc(C#N)nc4n3CCC3CCCCC3)cc2)CC1 | > 1000 nM |
| N#Cc1ncc2cc(CSc3ccncc3)n(CCC3CCCCC3)c2n1 | 480 nM |
| N#Cc1ncc2cc(COc3ccccn3)n(CCC3CCCCC3)c2n1 | 250 nM |
| N#Cc1ncc2cc(CNc3ccccc3)n(CCC3CCCCC3)c2n1 | > 1000 nM |
| N#Cc1ncc2cc(Cc3ccc(Cl)cc3)n(CCc3ccccc3)c2n1 | 100 nM |
| CC(C)(C)CCCn1c(Cc2ccc(Cl)cc2)cc2cnc(C#N)nc21 | 100 nM |
| N#Cc1ncc2cc(Cc3ccc(Cl)cc3)n(CCCC3CCCCC3)c2n1 | > 1000 nM |

---

- TEST: Plasma clearance in Sprague-Dawley rat at 1.0 mg/kg, iv or 3.0 mg/kg, po
- Format: ADME, organism-based

| QUERY_SMILES | clearance, L/h/kg |
| --- | --- |
| CC(=O)N1CCC(c2ccc(OCc3cc4cnc(C#N)nc4n3CCC3CCCCC3)cc2)CC1 | 5.3 |
| CC(=O)N1CC=C(c2ccc(OCc3cc4cnc(C#N)nc4n3CCC3CCCCC3)cc2)CC1 | 2.5 |
| CC(=O)N1CCN(c2ccc(OCc3cc4cnc(C#N)nc4n3CCC3CCCCC3)cc2)CC1 | 4 |

---

# Lookup of reported bioavailability keyed by entry
- TEST: Oral bioavailability in Sprague-Dawley rat at 3.0mg/kg, po
- Assay type: ADME, organism-based
- ASSAY_SETUP: in vivo, 3 mg/kg
MEASURED_ENDPOINT: bioavailability (%)

| QUERY_SMILES | RESULT |
| --- | --- |
| CC(=O)N1CCC(c2ccc(OCc3cc4cnc(C#N)nc4n3CCC3CCCCC3)cc2)CC1 | 25 |
| CC(=O)N1CC=C(c2ccc(OCc3cc4cnc(C#N)nc4n3CCC3CCCCC3)cc2)CC1 | 38 |
| CC(=O)N1CCN(c2ccc(OCc3cc4cnc(C#N)nc4n3CCC3CCCCC3)cc2)CC1 | 47 |

---

- TARGET: Procathepsin L (Homo sapiens, UniProt P07711)
- Sequence (P07711 whole entry): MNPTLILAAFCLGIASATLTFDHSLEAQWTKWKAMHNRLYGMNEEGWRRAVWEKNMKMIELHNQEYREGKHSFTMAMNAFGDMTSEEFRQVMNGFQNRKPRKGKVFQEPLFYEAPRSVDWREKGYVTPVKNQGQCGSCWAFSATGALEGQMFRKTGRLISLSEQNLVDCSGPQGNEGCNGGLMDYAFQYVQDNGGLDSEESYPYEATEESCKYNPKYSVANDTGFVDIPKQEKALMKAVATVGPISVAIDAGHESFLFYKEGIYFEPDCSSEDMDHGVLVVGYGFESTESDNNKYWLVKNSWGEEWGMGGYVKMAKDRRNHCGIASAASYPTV
- TEST: Inhibition of human recombinant cathepsin L by fluorescence assay
The entries below come with measured IC50 values attached.

| QUERY_SMILES | TARGET | IC50 |
| --- | --- | --- |
| N#Cc1ncc2cc(Cc3ccc(Cl)cc3)n(CCC3CCCCCC3)c2n1 | Procathepsin L (Homo sapiens, UniProt P07711) | 840 nM |
| CC(=O)N1CC=C(c2ccc(OCc3cc4cnc(C#N)nc4n3CCC3CCCCC3)cc2)CC1 | Procathepsin L (Homo sapiens, UniProt P07711) | > 1000 nM |
| N#Cc1ncc2cc(Cc3ccc(Cl)cc3)n(CCC3CCCCC3)c2n1 | Procathepsin L (Homo sapiens, UniProt P07711) | 320 nM |
| N#Cc1ncc2cc(COc3ccc(C(N)=O)cc3)n(CCC3CCCCC3)c2n1 | Procathepsin L (Homo sapiens, UniProt P07711) | > 1000 nM |
| CC(C)(C)Cn1c(Cc2ccc(Cl)cc2)cc2cnc(C#N)nc21 | Procathepsin L (Homo sapiens, UniProt P07711) | 96 nM |
| CC(=O)Nc1ccc(OCc2cc3cnc(C#N)nc3n2CCC2CCCCC2)cc1 | Procathepsin L (Homo sapiens, UniProt P07711) | > 1000 nM |
| N#Cc1ncc2cc(Cc3ccc(Cl)cc3)n(CCCC3CCCCC3)c2n1 | Procathepsin L (Homo sapiens, UniProt P07711) | > 1000 nM |

---

// values below are reported AUC
- TEST: AUC in Sprague-Dawley rat at 1.0 mg/kg, po
- Assay type: ADME, organism-based
- Design: dose 1 mg/kg, route oral
- ASSAY_SETUP: plasma

| QUERY_SMILES | AUC [µM·h] |
| --- | --- |
| CC(=O)N1CCN(c2ccc(OCc3cc4cnc(C#N)nc4n3CCC3CCCCC3)cc2)CC1 | 0.242 |
| CC(=O)N1CCC(c2ccc(OCc3cc4cnc(C#N)nc4n3CCC3CCCCC3)cc2)CC1 | 0.103 |
| N#Cc1ncc2cc(COc3ccc(C(N)=O)cc3)n(CCC3CCCCC3)c2n1 | 0.108 |
| CC(=O)N1CC=C(c2ccc(OCc3cc4cnc(C#N)nc4n3CCC3CCCCC3)cc2)CC1 | 0.346 |

---

Form field: half-life (one value per entry).
- TEST: Half life in Sprague-Dawley rat at 1.0 mg/kg, iv
- Format: ADME, organism-based
- Design: dose 1 mg/kg, route intravenous
- ASSAY_SETUP: in vivo
MEASURED_ENDPOINT: half-life (h)

| QUERY_SMILES | MEASURED_ENDPOINT | RESULT |
| --- | --- | --- |
| CC(=O)N1CCC(c2ccc(OCc3cc4cnc(C#N)nc4n3CCC3CCCCC3)cc2)CC1 | half-life | 1.3 |
| CC(=O)N1CC=C(c2ccc(OCc3cc4cnc(C#N)nc4n3CCC3CCCCC3)cc2)CC1 | half-life | 1.4 |
| CC(=O)N1CCN(c2ccc(OCc3cc4cnc(C#N)nc4n3CCC3CCCCC3)cc2)CC1 | half-life | 1.2 |
